- Tested on: transfected CHO cells expressing recombinant human monoclonal antibody (cell line 1)
- method description: 24-deep well culture, cell line 1: VCD, viability, titer, qP
- Type: cell-based, Chinese hamster
- measurement parameters: Cell Line 1; 10 microM; D 4
property measured: VCD

# count of solved cases: 4
- molecule: "CC1CCC(n2c3cnccc3c3cnc(Nc4ccc(N5CCC6(CC5)CCS(=O)(=O)C6)nn4)nc32)CC1 (centres unmarked) [Compound E]"
  system: "transfected CHO cells expressing recombinant human monoclonal antibody (cell line 1)"
  VCD: "10.29 e6/mL"
- molecule: "CC1CCC(n2c3cnccc3c3cnc(Nc4ccc(N5CCNC(C)C5)nn4)nc32)CC1 (centres unmarked) [Compound D]"
  system: "transfected CHO cells expressing recombinant human monoclonal antibody (cell line 1)"
  VCD: "10.04 e6/mL"
- molecule: "OC1CCN(c2ccc(Nc3ncc4c5ccncc5n(C5CCCC5)c4n3)nn2)C1 (centres unmarked) [Compound G]"
  system: "transfected CHO cells expressing recombinant human monoclonal antibody (cell line 1)"
  VCD: "13.58 e6/mL"
- molecule: "CN(C)C1CCN(c2ccc(Nc3ncc4c(n3)C3(C=CC(C)(C)CC3)c3cnccc3-4)nn2)CC1 (centres unmarked) [Compound H]"
  system: "transfected CHO cells expressing recombinant human monoclonal antibody (cell line 1)"
  VCD: "16.49 e6/mL"

Now look at this one.
// query Query (molecule): CN(C)C1CCN(c2ccc(Nc3ncc4c5ccncc5n(C5CCCC5)c4n3)nn2)CC1 [Compound C] ; field requested: VCD
// result 12.18 e6/mL

Source of measurements: patent US20180087079A1
